Overview of recorded pIC50 for various compounds
molecular target: DGKζ (Homo sapiens); construct: His; experiment: In vitro DGKζ inhibition assay (ADP-Glo); details: His-tagged human recombinant enzyme, 0.4 nM DGKζ, 30 μM ATP, 20 μM DLG, 90 minute incubation
Sequence (Q13574 whole entry): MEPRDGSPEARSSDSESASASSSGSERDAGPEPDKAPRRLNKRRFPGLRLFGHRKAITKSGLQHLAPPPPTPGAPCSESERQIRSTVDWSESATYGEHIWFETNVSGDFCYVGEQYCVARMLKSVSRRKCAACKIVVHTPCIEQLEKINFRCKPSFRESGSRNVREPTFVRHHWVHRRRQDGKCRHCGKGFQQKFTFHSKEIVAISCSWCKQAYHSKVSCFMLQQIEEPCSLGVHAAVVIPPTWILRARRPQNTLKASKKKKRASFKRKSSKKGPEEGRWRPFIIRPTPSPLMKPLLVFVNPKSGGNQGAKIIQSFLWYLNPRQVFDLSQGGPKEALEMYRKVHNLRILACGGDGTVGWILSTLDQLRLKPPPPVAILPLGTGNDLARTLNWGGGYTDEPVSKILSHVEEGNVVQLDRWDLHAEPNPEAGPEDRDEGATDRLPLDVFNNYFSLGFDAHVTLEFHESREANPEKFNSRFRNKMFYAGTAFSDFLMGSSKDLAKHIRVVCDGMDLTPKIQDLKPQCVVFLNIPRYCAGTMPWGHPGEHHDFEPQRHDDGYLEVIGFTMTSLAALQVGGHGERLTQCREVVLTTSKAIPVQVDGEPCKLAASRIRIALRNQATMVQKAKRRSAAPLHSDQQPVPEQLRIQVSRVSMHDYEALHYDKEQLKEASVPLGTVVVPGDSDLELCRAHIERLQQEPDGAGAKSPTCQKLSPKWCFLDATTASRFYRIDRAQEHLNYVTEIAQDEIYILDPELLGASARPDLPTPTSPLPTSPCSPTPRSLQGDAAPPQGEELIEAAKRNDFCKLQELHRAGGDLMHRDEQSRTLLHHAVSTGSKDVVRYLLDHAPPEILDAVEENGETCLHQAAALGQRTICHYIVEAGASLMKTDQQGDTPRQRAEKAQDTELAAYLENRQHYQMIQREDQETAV
pIC50: −log10 of the molar value.

{"SMILES": "F/C(=C\\c1ccc(Oc2cccc(F)c2F)c(C(F)(F)F)c1N1CCCC2(CCN(CC3CC3)CC2)C1)c1ccn(-c2ccnnc2)n1", "pIC50": "≥ 7.70"}
{"SMILES": "NC[C@@H]1CCCN(c2c(/C=C(\\F)c3csc(-c4ccnnc4)n3)ccc(Oc3ccccc3F)c2C(F)(F)F)C1", "pIC50": "≥ 7.70"}
{"SMILES": "OCCN1CCC2(CCCN(c3c(/C=C(\\F)c4csc(-c5ccnnc5)n4)ccc(Oc4ccccn4)c3C(F)(F)F)C2)CC1", "pIC50": "≥ 7.70"}
{"SMILES": "F/C(=C\\c1ccc(Oc2cccc(F)c2F)c(C(F)(F)F)c1N1CCCC2(CN(CC3CC3)C2)C1)c1ccn(-c2ccnnc2)n1", "pIC50": "6.70 to 7.70"}
{"SMILES": "COc1cc(F)ccc1Oc1ccc(/C=C(\\F)c2csc(-c3ccnnc3)n2)c(N2CCC[C@@H](CN)C2)c1Cl", "pIC50": "≥ 7.70"}
{"SMILES": "CCN1CC2(CCCN(c3c(/C=C(\\F)c4ccn(-c5ccnnc5)n4)ccc(Oc4cccc(F)c4F)c3C(F)(F)F)C2)C1", "pIC50": "≥ 7.70"}
{"SMILES": "F/C(=C\\c1ccc(Oc2ccccc2)c(C(F)(F)F)c1N1CCCC2(CCNCC2)C1)c1csc(N2CCC(F)(F)C2)n1", "pIC50": "5.70 to 6.70"}

----------
biological target: DGKζ (Homo sapiens); construct: His; assay: In vitro DGKζ inhibition assay (ADP-Glo); details: His-tagged human recombinant enzyme, 0.4 nM DGKζ, 30 μM ATP, 20 μM DLG, 90 minute incubation
This listing pairs compounds with measured IC50.
READOUT TYPE: IC50

{"COMPOUND": "F/C(=C\\c1ccc(Oc2cccc(F)c2F)c(Cl)c1N1CCCC2(CCN(CC3CC3)CC2)C1)c1ccn(-c2ccnnc2)n1 [Example 22]", "TARGET OF ASSAY": "DGKζ (Homo sapiens)", "REPORTED MEASUREMENT": "0.02 to 0.2 µM"}
{"COMPOUND": "CCN1CCC2(CC1)CN(c1c(/C=C(\\F)c3csc(-c4ccnnc4)n3)ccc(Oc3ccccc3)c1C(F)(F)F)CCO2 [Example 6]", "TARGET OF ASSAY": "DGKζ (Homo sapiens)", "REPORTED MEASUREMENT": "≤ 0.02 µM"}
{"COMPOUND": "F/C(=C\\c1ccc(OC2CCC2)c(C(F)(F)F)c1N1CCOC2(CCNCC2)C1)c1csc(-c2ccnnc2)n1 [Example 7]", "TARGET OF ASSAY": "DGKζ (Homo sapiens)", "REPORTED MEASUREMENT": "0.02 to 0.2 µM"}
{"COMPOUND": "F/C(=C\\c1ccc(Oc2ccccn2)c(C(F)(F)F)c1N1CCCC2(CCN(CC3CC3)CC2)C1)c1csc(-c2ccnnc2)n1 [Example 14]", "TARGET OF ASSAY": "DGKζ (Homo sapiens)", "REPORTED MEASUREMENT": "≤ 0.02 µM"}
